Value source: patent US9315490B2

Target: human PDE4B1 (Homo sapiens, UniProt Q07343)
Construct: host or cells: Sf9 cells
Sequence (Q07343 whole entry): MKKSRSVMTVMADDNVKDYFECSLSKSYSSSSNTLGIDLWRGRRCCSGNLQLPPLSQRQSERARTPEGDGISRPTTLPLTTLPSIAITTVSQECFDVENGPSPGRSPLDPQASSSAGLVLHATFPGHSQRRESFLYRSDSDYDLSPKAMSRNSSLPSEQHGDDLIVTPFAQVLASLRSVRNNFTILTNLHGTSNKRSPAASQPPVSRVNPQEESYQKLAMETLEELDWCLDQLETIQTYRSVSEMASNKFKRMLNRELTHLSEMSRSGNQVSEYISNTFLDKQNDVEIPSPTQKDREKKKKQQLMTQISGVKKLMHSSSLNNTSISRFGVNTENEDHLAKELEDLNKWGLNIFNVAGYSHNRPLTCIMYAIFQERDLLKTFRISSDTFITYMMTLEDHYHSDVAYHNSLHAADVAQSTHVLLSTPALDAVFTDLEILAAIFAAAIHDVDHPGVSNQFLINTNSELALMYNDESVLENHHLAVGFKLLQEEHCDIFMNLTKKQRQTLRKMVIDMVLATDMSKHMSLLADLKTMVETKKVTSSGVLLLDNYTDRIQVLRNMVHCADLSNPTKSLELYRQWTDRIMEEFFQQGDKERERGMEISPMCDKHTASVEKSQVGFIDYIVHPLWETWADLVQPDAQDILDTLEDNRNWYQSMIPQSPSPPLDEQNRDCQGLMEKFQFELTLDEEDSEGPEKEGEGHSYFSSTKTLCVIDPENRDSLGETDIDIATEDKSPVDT
Experiment: cAMP HTRF assay to determine the activity of hPDE4B1
Assay type: biochemical
Settings: inhibition of PDE4B at a test concentration of 1 μM
assay-readout: inhibition at 1 µM (%)

compound | inhibition at 1 µM (%)
COC(=O)c1ccc(-c2cnc(-n3cc([S+](C)[O-])c4ccc(C(=O)N5CCOCC5)cc43)nc2)cc1 (stereo not drawn) | 90

1: Cc1ccc(F)c(-c2cnc(-n3cc([S+](C)[O-])c4ccc(C(=O)N5CCOCC5)cc43)nc2)c1 (stereo not drawn)
2: C[S+]([O-])c1cn(-c2ncc(-c3ccc(F)cc3F)cn2)c2cc(C(=O)N3CCNCC3)ccc12 (stereo not drawn)
Min inhibition at 1 µM? 1 | 2 Choose, then provide that item's label.
2

###

Biological target: human PDE4B1 (Homo sapiens, UniProt Q07343)
Construct: host or cells: Sf9 cells
Assay: TR-FRET assay using the LANCE Ultra cAMP kit to determine the activity of hPDE4B1
Assay type: biochemical
Details: test concentration 1 μM, read-out: Inhibition in % (inhibition of PDE4B)
assay-readout: inhibition at 1 µM (%)

Examples with answers:
compound | readout-units | inhibition at 1 µM
C[S+]([O-])c1cn(-c2ncc(-c3cc(C(C)(C)O)ccc3F)cn2)c2cc(C(=O)N3CCOCC3)ccc12 (stereo not drawn) [Example 293] | % | 94
C[S+]([O-])c1cn(-c2ncc(-c3cc(N4CCCC4)ccn3)cn2)c2cc(C(=O)N3CCOCC3)ccc12 (stereo not drawn) [Example 297] | % | 93
Cc1ccnc(-c2cnc(-n3cc([S+](C)[O-])c4ccc(C(=O)N(C)CC(N)=O)cc43)nc2)c1 (stereo not drawn) [Example 282] | % | 90
Cc1csc(-c2cnc(-n3cc([S+](C)[O-])c4ccc(C(=O)N5CCOCC5)cc43)nc2)n1 (stereo not drawn) [Example 205] | % | 93

I: Cc1cnc(-c2cnc(-n3cc([S+](C)[O-])c4ccc(C(=O)N5CCOCC5)cc43)nc2)s1 (stereo not drawn) [Example 206]
II: CCOc1ccc(F)c(-c2cnc(-n3cc([S+](C)[O-])c4ccc(C(=O)N5CCOCC5)cc43)nc2)c1 (stereo not drawn) [Example 261]
Hi, I'm comparing I with II and wondering which one has the bigger number for inhibition at 1 µM. Any idea? Choose, then provide that item's label.
I
(I: 85%, II: 55%)

###

Listed molecules paired with reported melting point

Examples with answers:
molecule | melting point
C[S+]([O-])c1cn(-c2ncc(-c3ccccc3Cl)cn2)c2cc(C(=O)N3CCOCC3)ccc12 (stereo not shown) | 226 to 230 °C
CN(CCN)C(=O)c1ccc2c([S+](C)[O-])cn(-c3ncc(-c4ccccc4F)cn3)c2c1 (stereo not shown) | 88 to 92 °C
CS(=O)(=O)c1cn(-c2ncc(-c3ccccc3Cl)cn2)c2cc(C(=O)N3CCOCC3)ccc12 | 235 to 239 °C

Now look at this entry.
Need melting point of COc1ccc(F)c(-c2cnc(-n3cc(S(C)(=O)=O)c4ccc(C(=O)N5CCNC(=O)C5)cc43)nc2)c1 , thanks.
293 to 295 °C

###

Listed compounds paired with reported melting point

compound | melting point
CS(=O)(=O)c1cn(-c2ncc(-c3ccccc3C#N)cn2)c2cc(C(=O)N3CCOCC3)ccc12 | 265 to 269 °C
COc1cccc(-c2cnc(-n3cc(S(C)(=O)=O)c4ccc(C(=O)N5CCNC(=O)C5)cc43)nc2)c1 | 270 to 273 °C
C[S+]([O-])c1cn(-c2ncc(-c3ccc(F)cc3F)cn2)c2cc(C(=O)N3CCOCC3)ccc12 (stereo not drawn) | 230 to 233 °C
Cc1cccc(-c2cnc(-n3cc(S(C)(=O)=O)c4ccc(C(=O)N5CCNC(=O)C5)cc43)nc2)c1 | 283 to 287 °C
C[S+]([O-])c1cn(-c2ncc(-c3cscn3)cn2)c2cc(C(=O)N3CCOCC3)ccc12 (stereo not drawn) | 254 to 257 °C

Need melting point of C[S+]([O-])c1cn(-c2ncc(-c3ncc(C(N)=O)s3)cn2)c2cc(C(=O)N3CCOCC3)ccc12 (stereo not drawn) , thanks.
286 to 289 °C

Need melting point of C[S+]([O-])c1cn(-c2ncc(-c3cc(C4CC4)ccn3)cn2)c2cc(C(=O)N3CC[C@@H](N)C3)ccc12 (stereo partly drawn) , thanks.
278 to 281 °C

Need melting point of CS(=O)(=O)c1cn(-c2ncc(-c3ccccc3)cn2)c2cc(C(=O)N3CCOCC3)ccc12 , thanks.
270 to 274 °C

Need melting point of C[S+]([O-])c1cn(-c2ncc(-c3cc(C#N)ccc3F)cn2)c2cc(C(=O)N3CCNCC3)ccc12 (stereo not drawn) , thanks.
159 to 163 °C

Need melting point of CNCCN(C)C(=O)c1ccc2c([S+](C)[O-])cn(-c3ncc(-c4ccccc4F)cn3)c2c1 (stereo not drawn) , thanks.
122 to 126 °C

Need melting point of O=C(c1ccc2c(C3CC3)cn(-c3ncc(-c4ccccc4F)cn3)c2c1)N1CCOCC1 , thanks.
177 to 181 °C

Need melting point of C[S+]([O-])c1cn(-c2ncc(-c3ccncc3F)cn2)c2cc(C(=O)N3CCOCC3)ccc12 (stereo not drawn) , thanks.
241 to 244 °C

Need melting point of C[S+]([O-])c1cn(-c2ncc(-c3ccc(C(N)=O)cc3F)cn2)c2cc(C(=O)N3CCOCC3)ccc12 (stereo not drawn) , thanks.
202 to 206 °C

Need melting point of C[S+]([O-])c1cn(-c2ncc(-c3ccccc3C#N)cn2)c2cc(C(=O)N3CCOCC3)ccc12 (stereo not drawn) , thanks.
277 to 281 °C

Need melting point of C[S+]([O-])c1cn(-c2ncc(-c3cc(C(N)=O)ccn3)cn2)c2cc(C(=O)N3CCOCC3)ccc12 (stereo not drawn) , thanks.
303 to 306 °C
